Test system: HCC-2998 colon
measurementDescription: NCI tumour cell line growth inhibition, 48 h
Readings of TGI for the listed compounds

CCCCCCCCP(=O)(O)OP(=O)(O)OCC1OC(n2ccc(N)nc2=O)C(O)C1O (centres undefined) :: > 100 µM
N#C/C(=N\Nc1ccccc1)C(=O)Nc1cc(-c2ccccc2)nn1-c1ccccc1 :: > 100 µM
CN(C)CCCC1(c2ccc(F)cc2)OCc2cc(-c3cc4ccccc4s3)ccc21 (centres undefined) :: 3.11 µM

Reported TGI for `CC1(C)OC(=O)C(C#N)=C1C[n+]1ccccc1` was > 10 µM

###

System: 786-0 renal
measurementDescription: NCI tumour cell line growth inhibition, 48 h
propertyMeasured: TGI

Reference set, count: 3
O=C1CC(=O)NC(=NN2C(=O)CSC2C(=O)c2ccco2)N1 (configuration not stated) :: > 100 µM
O=C(C/C(=N/O)C(F)(F)F)c1cccs1 :: > 100 µM
C[C@H]1CNC(=O)c2cnn3ccc(nc23)N[C@H](C)c2cc(F)ccc2O1 :: 2.11 µM

Recorded result, `Cc1nc(N)nc(N)c1CCCc1ccccc1` , TGI: > 100 µM

Measured TGI of `CC(=O)O[C@H]1C[C@@H](OC(C)=O)[C@@](C)(O)[C@@H]2[C@@H](OC(C)=O)[C@@]3(O)[C@H](/C=C(/CO)[C@H]4O[C@H]4[C@@H](OC(C)=O)[C@@]12C)OC(=O)[C@@H]3C` : > 25 µM

Form: molecule = `Cc1[nH]c(N)nc(=S)c1CCC(=O)O` ; TGI = > 100 µM

Form field TGI, entry `CC(=O)O[C@H]1C(=O)[C@@]2(C)[C@H]([C@H](OC(=O)c3ccccc3)[C@]3(O)C[C@H](OC(=O)[C@H](OC(=O)OC[C@H]4COC(C)(C)O4)[C@@H](NC(=O)c4ccccc4)c4ccccc4)C(C)=C1C3(C)C)[C@]1(OC(C)=O)CO[C@@H]1C[C@@H]2O` : > 33.3 µM

Sure, the documented TGI for COC(=O)C(Cc1c[nH]c2ccccc12)NP(=O)(O)OCC1OC(n2cc(Br)c(=O)[nH]c2=O)CC1O (configuration not stated) is > 100 µM

Entry `CCCCCCCC(=O)SCC/C=C/[C@@H]1CC(=O)NCc2nc(cs2)C2=N[C@@](C)(CS2)C(=O)N[C@@H](C(C)C)C(=O)N1` , TGI reported as 19.7 µM
